- Test system: human red blood cells (hRBC)
- test description: Hemolysis of human red blood cells
- Assay type: cell-based
- setup conditions: red cells of human, 1 h, 100
Where a SMILES comes first, the peptide text is derived from it. [ ]: non-standard residue; d: D form. Cha = N[C@@H](CC1CCCCC1)C(=O)O; Tle = CC(C)(C)[C@H](N)C(=O)O; dDab = NCC[C@@H](N)C(=O)O; Orn = NCCC[C@H](N)C(=O)O; Dab = NCC[C@H](N)C(=O)O; Nva = CCC[C@H](N)C(=O)O
Hi there, I'd appreciate the recorded Hemolysis at 100 μg/ml for every entry that follows.

// CC(C)C[C@@H]1NC(=O)[C@@H]2CCCN2C(=O)[C@H]2CCCN2C(=O)[C@H](CO)NC(=O)[C@H](C)NC(=O)[C@H](CC2CCCCC2)NC(=O)[C@H](CCN)NC(=O)[C@H](Cc2c[nH]c3ccccc23)NC(=O)[C@H](CCN)NC(=O)[C@@H](CCN)NC(=O)[C@H](CCCCN)NC(=O)[C@H](CCN)NC(=O)[C@H](Cc2ccc(O)cc2)NC(=O)[C@H](C)NC1=O [compound 128] (cyclo(LAY[Dab]K[dDab][Dab]W[Dab][Cha]AS[dP]P)) : Hemolysis at 100 μg/ml value = 2%

// CCC[C@@H]1NC(=O)[C@@H]2CCCN2C(=O)[C@H]2CCCN2C(=O)[C@H](CO)NC(=O)[C@H](C)NC(=O)[C@H](CC2CCCCC2)NC(=O)[C@H](CCN)NC(=O)[C@H](Cc2c[nH]c3ccccc23)NC(=O)[C@H](CCN)NC(=O)[C@@H](CCN)NC(=O)[C@H](CCCN)NC(=O)[C@H](CCN)NC(=O)[C@H](C(C)(C)C)NC(=O)[C@H](CO)NC1=O [compound 141] (cyclo([Nva]S[Tle][Dab][Orn][dDab][Dab]W[Dab][Cha]AS[dP]P)) : Hemolysis at 100 μg/ml value = 8%
